Values were extracted from patent US20110124842A1.

Overview of recorded Kd for various binders
target.or.system: Fab 4E10
protocol.description: SPR (Biacore 2000), Fab 4E10 on CM5 chip, peptide in flow
Bridges are numbered along the chain shown (N, C = ends). Where no end group is shown, it is not given here. [ ]: non-standard residue; d: D form. Orn = NCCC[C@H](N)C(=O)O; Aib = CC(C)(N)C(=O)O
observable: Kd

INSERT INTO measurements (binder, value_measured) VALUES
  ('NWFCIT[Orn]WLWKKKK-NH2 (bridge 4-7; not fully specified (bridges); printed as peptide 104-2, NWFc(CITO)WLWKKKK-NH2) [peptide 104-2, NWFc(CITO)WLWKKKK-NH2]', '17 nM'),
  ('NWFDITNWLWYIKKKK-NH2 [peptide 94-1, …-NH2]', '20 nM'),
  ('CWFXITNWLWKKKK (cyclic thioether between Cys 1 and ornithine (O) 4; C-terminal amide) [peptide 74-2, c(CWFO)…-NH2]', '276 nM'),
  ('NWFDITN[Aib]LWRR-NH2 (N-terminus assumed; SMILES CC[C@H](C)[C@H](NC(=O)[C@H](CC(=O)O)NC(=O)[C@H](Cc1ccccc1)NC(=O)[C@H](Cc1c[nH]c2ccccc12)NC(=O)[C@@H](N)CC(N)=O)C(=O)N[C@H](C(=O)N[C@@H](CC(N)=O)C(=O)NC(C)(C)C(=O)N[C@@H](CC(C)C)C(=O)N[C@@H](Cc1c[nH]c2ccccc12)C(=O)N[C@@H](CCCNC(=N)N)C(=O)N[C@@H](CCCNC(=N)N)C(N)=O)[C@@H](C)O) [peptide 33-1, NWFDITN-Aib-LWRR-NH2]', '302 nM');
